Entries and their Ki
- MEASURED_ON: Adenosine receptor A1 (Homo sapiens, UniProt P30542)
- Sequence (P30542 whole entry): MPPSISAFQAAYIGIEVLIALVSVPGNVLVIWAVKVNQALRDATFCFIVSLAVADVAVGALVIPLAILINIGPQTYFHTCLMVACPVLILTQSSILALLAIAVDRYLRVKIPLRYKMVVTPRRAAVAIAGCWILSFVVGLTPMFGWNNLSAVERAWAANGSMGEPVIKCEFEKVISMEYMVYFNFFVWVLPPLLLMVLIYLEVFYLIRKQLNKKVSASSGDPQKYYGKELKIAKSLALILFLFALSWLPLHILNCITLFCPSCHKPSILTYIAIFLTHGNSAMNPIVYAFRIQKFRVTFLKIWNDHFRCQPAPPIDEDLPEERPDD

SMILES_REPR	MEASURED_ON	VALUE_TYPE	REPORTED_VALUE
COC(=O)N1Cc2nc(-c3ccccc3)nn2-c2cc(C)ccc21	Adenosine receptor A1 (Homo sapiens, UniProt P30542)	Ki	1480 nM
CCC(=O)N1Cc2nc(-c3ccccc3)nn2-c2cc(C)ccc21	Adenosine receptor A1 (Homo sapiens, UniProt P30542)	Ki	134 nM
CCOC(=O)N1Cc2nc(-c3ccccc3)nn2-c2cc(C)ccc21	Adenosine receptor A1 (Homo sapiens, UniProt P30542)	Ki	556 nM

As a next step, examine the compound that follows.
Kindly state the measured Ki obtained for CCC(=O)N1Cc2nc(-c3ccc(OC)cc3)nn2-c2cc(C)ccc21 with Adenosine receptor A1 (Homo sapiens, UniProt P30542). 1540 nM

###

- MEASURED_ON: UniProt:P29275
- Sequence (P29275 whole entry): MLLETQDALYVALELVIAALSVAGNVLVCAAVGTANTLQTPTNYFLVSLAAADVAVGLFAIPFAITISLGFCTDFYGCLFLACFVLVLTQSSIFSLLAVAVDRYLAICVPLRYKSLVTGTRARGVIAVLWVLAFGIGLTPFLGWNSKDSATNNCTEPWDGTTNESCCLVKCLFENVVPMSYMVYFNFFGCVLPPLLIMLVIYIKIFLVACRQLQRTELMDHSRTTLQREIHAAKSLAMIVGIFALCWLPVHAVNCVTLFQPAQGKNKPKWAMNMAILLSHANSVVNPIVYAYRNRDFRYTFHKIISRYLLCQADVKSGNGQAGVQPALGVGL
- ASSAY_PROTOCOL: Antagonist activity at human recombinant adenosine A2B receptor expressed in CHO cells assessed as inhibition of NECA-induced cAMP accumulation measured as cAMP level at 10 uM incubated for 15 mins prior to NECA challenge measured after 30 mins by liquid scintillation counting analysis relative to control
- Assay type: functional, cell-based
- Parameters: scale not given: the % may be the effect or the level left
VALUE_TYPE: Activity (%)
Response body: numeric value in %, unit text excluded.

SMILES_REPR	Activity (%)
CCC(=O)N1Cc2nc(-c3ccc(OC)cc3)nn2-c2cc(C)ccc21	102

Kindly state the measured Activity obtained for COc1ccc(-c2nc3cnc4ccc(C)cc4n3n2)cc1 with UniProt:P29275. 42.6

Kindly state the measured Activity obtained for CCC(=O)N1Cc2nc(-c3ccccc3)nn2-c2cc(Cl)ccc21 with UniProt:P29275. 63.7

Kindly state the measured Activity obtained for COc1ccc(-c2nc3n(n2)-c2cc(C)ccc2N(C(=O)Cc2ccccc2)C3)cc1 with UniProt:P29275. 89.5

Kindly state the measured Activity obtained for CCOC(=O)N1Cc2nc(-c3ccccc3)nn2-c2cc(C)ccc21 with UniProt:P29275. 104

Kindly state the measured Activity obtained for CCC(=O)N1Cc2nc(-c3ccccc3)nn2-c2cc(C)ccc21 with UniProt:P29275. 68.6

Kindly state the measured Activity obtained for C#CCOC(=O)N1Cc2nc(-c3ccc(OC)cc3)nn2-c2cc(C)ccc21 with UniProt:P29275. 109

Kindly state the measured Activity obtained for COC(=O)N1Cc2nc(-c3ccccc3)nn2-c2cc(C)ccc21 with UniProt:P29275. 74.9

###

Entries and their inhibition
- MEASURED_ON: UniProtKB P0DMS8
- Sequence (P0DMS8 whole entry): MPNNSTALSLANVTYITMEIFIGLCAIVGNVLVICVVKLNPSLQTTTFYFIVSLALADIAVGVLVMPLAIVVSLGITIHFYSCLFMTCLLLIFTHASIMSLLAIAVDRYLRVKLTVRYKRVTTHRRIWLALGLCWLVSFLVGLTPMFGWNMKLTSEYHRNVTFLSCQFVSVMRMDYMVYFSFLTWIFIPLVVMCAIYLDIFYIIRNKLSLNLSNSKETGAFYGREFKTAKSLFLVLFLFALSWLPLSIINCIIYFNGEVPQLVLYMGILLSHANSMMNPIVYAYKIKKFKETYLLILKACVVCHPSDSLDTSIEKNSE
- ASSAY_PROTOCOL: Displacement of [125I]AB-MECA from human adenosine A3 receptor expressed in CHO cells at 1 uM
- Format: cell-based
Response body: numeric value in %, unit text excluded.

Example entries begin here.
SMILES_REPR	REPORTED_VALUE
CCOC(=O)N1Cc2nc(-c3ccccc3)nn2-c2ccccc21	22
COc1ccc(-c2nc(NC(=O)c3ccccc3)n(-c3ccccc3)n2)cc1	50
COc1ccc(-c2nc(N(C(C)=O)C(C)=O)n(-c3ccccc3)n2)cc1	19

As a next step, examine the compound that follows.
Look up inhibition for this compound: COc1ccc(-c2nc(N(C(=O)c3ccccc3)C(=O)c3ccccc3)n(-c3ccccc3)n2)cc1 44
